Origin of values: patent EP0032748B1

tested on: hariot (variety: Taisho Kintoki); details: Table 6; spray liquid 200 ppm; haricot

MOLECULE: CCOC(=O)Oc1c(C#N)sc(C(=O)OCC)c1OC(=O)OCC [Compound No. 216]
Degree of phytotoxicity: 0
--
MOLECULE: CCOC(=O)c1sc(C(=O)c2ccccc2)c(OC(=O)OC)c1OC(=O)OC [Compound No. 252]
Degree of phytotoxicity: 0
--
MOLECULE: CCOC(=O)c1sc(C(=O)OCC)c(OC(=O)OC)c1OC(=O)OC [Compound No. 22]
Degree of phytotoxicity: 0
--
MOLECULE: COC(=O)c1sc(C(=O)c2ccccc2)c(O)c1O [Compound No. 246]
Degree of phytotoxicity: 0
--
MOLECULE: CCOC(=O)c1sc(C(=O)c2ccccc2)c(O)c1O [Compound No. 247]
Degree of phytotoxicity: 0
--
MOLECULE: CCOC(=O)c1sc(C(=O)c2ccc(C)cc2)c(OC(=O)N(C)C)c1OC(=O)N(C)C [Compound No. 287]
Degree of phytotoxicity: 0
--
MOLECULE: CCOC(=O)c1sc(C(=O)c2ccccc2)c(OC(C)=O)c1OC(C)=O [Compound No. 249]
Degree of phytotoxicity: 0

====

tested on: cucumber (variety: Sagami Hanjiro); details: Table 7, spray liquid 500 ppm
MEASURED METRIC: Degree of phytotoxicity

MOLECULAR STRING: CCOC(=O)c1sc(C#N)c(OC(=O)NC)c1OC(=O)NC
NUMBER: 0
--
MOLECULAR STRING: COC(=O)Oc1c(C(=O)OCc2ccccc2)sc(C(=O)OCc2ccccc2)c1OC(=O)OC
NUMBER: 0
--
MOLECULAR STRING: CCOC(=O)c1sc(C(=O)OCC)c(OC(=O)c2cccs2)c1OC(=O)c1cccs1
NUMBER: 0
--
MOLECULAR STRING: CCOC(=O)c1sc(C#N)c(O)c1O
NUMBER: 0
--
MOLECULAR STRING: COCCOC(=O)c1sc(C(=O)OCCOC)c(OC(=O)COC)c1OC(=O)COC
NUMBER: 0
--
MOLECULAR STRING: CCOC(=O)c1sc(C(=O)OCC)c(OC(=O)NC)c1OC(=O)NC
NUMBER: 0
--
MOLECULAR STRING: CCNC(=O)Oc1c(C#N)sc(C(=O)OC)c1OC(=O)NCC
NUMBER: 0
--
MOLECULAR STRING: CCOC(=O)c1sc(C(=O)OCC)c(OC(=O)OC)c1OC(=O)OC
NUMBER: 0
--
MOLECULAR STRING: CNC(=O)Oc1c(C#N)sc(C(=O)OC)c1OC(=O)NC
NUMBER: 0

====

test system: pear alternaria leaf spot fungus (Alternaria kikuchiana); assay type: in vivo; details: pear black spot; concentration of spray liquid 500 ppm; three days after the inoculation
Control value (%) values, listed per item

COMPOUND: CCOC(=O)c1sc(C#N)c(OC(C)=O)c1OC(C)=O
Control value (%): 100

COMPOUND: CNC(=O)Oc1c(C#N)sc(C(=O)OC)c1OC(=O)NC
Control value (%): 92

COMPOUND: CCOC(=O)c1sc(C#N)c(OC(=O)NC)c1OC(=O)NC
Control value (%): 92

COMPOUND: CCOC(=O)c1sc(C#N)c(O)c1O
Control value (%): 100

COMPOUND: CCNC(=O)Oc1c(C#N)sc(C(=O)OC)c1OC(=O)NCC
Control value (%): 78

COMPOUND: O=C1C2CC=CCC2C(=O)N1SC(Cl)(Cl)Cl (stereo not drawn) [Captan, reference compound]
Control value (%): 90
